Numbers sourced from patent US20230257351A1.

target: human P2X4 (Homo sapiens); construct: expressed in transfected cells; assay: Human P2X4 HEK Cell FLIPR Assay; assay type: cell-based; conditions: HEK293 stably expressing human P2X4; agonist Bz-ATP 3 μM (EC80)
Sequence (Q99571 whole entry): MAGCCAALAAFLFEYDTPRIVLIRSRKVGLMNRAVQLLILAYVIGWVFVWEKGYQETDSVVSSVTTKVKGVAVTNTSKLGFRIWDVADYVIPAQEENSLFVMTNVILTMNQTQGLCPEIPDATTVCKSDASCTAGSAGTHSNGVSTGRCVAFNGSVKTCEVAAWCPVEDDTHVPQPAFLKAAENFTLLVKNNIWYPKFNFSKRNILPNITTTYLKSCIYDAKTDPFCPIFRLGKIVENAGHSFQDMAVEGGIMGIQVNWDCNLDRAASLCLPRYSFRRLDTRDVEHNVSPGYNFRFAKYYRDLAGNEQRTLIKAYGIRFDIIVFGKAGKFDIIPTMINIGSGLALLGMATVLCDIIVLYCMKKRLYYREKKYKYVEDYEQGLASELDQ
Would you kindly list Human P2X4 HEK Cells (FLIPR Assay) avg Efficacy for each of these compounds?
All answers are understood in %, so give the number only.

### Prompt Request the reported Human P2X4 HEK Cells (FLIPR Assay) avg Efficacy associated with CC(=O)N(c1cc(F)cc(C#N)c1)c1cc(NC(=O)Cc2c(F)cccc2Cl)ccn1
### Response 96

### Prompt Request the reported Human P2X4 HEK Cells (FLIPR Assay) avg Efficacy associated with CC(=O)N(c1ccccc1)c1cc(NC(=O)Cc2ccccc2Cl)cnn1
### Response 100

### Prompt Request the reported Human P2X4 HEK Cells (FLIPR Assay) avg Efficacy associated with CC(=O)N(c1cc(NC(=O)Cc2c(Cl)cccc2Cl)ccn1)c1ccc(C(F)(F)F)cc1F
### Response 102

### Prompt Request the reported Human P2X4 HEK Cells (FLIPR Assay) avg Efficacy associated with CC(=O)N(c1ccc(F)c(Cl)c1)c1cc(NC(=O)Cc2ccc(F)cc2Cl)ccn1
### Response 98

### Prompt Request the reported Human P2X4 HEK Cells (FLIPR Assay) avg Efficacy associated with CC(=O)N(c1cc(NC(=O)Cc2ccc(F)cc2Cl)ccn1)c1ccccc1Cl
### Response 98

### Prompt Request the reported Human P2X4 HEK Cells (FLIPR Assay) avg Efficacy associated with CC(=O)N(c1cccc(C(F)F)c1)c1cc(NC(=O)Cc2ccc(F)cc2Cl)ccn1
### Response 98

### Prompt Request the reported Human P2X4 HEK Cells (FLIPR Assay) avg Efficacy associated with COc1ccc(N(C(C)=O)c2cc(NC(=O)Cc3ccc(F)cc3Cl)ccn2)cc1F
### Response 94

### Prompt Request the reported Human P2X4 HEK Cells (FLIPR Assay) avg Efficacy associated with CC(=O)N(c1cc(F)cc(F)c1)c1cc(NC(=O)Cc2c(C)cccc2C)ccn1
### Response 98
